Just for reference, paper PMC7211202 is where these values come from.

Assay: Plasma AMG 232 pharmacokinetics (HPLC-MS, non-compartmental analysis)
Type: in vivo, human
Conditions: human, plasma, oral, 480 mg, Day 7, dose escalation, 480 mg (n = 5–6); read-out: tmax, median (range)
Procedure: Non-compartmental analysis was performed using WinNonlin Professional software, version 6.3. Parameters were summarized descriptively.
ASSAY_READOUT: Tmax
Answer format reminder: number followed by unit.

Exercise: For CC(C)[C@@H](CS(=O)(=O)C(C)C)N1C(=O)[C@@](C)(CC(=O)O)C[C@H](c2cccc(Cl)c2)[C@H]1c1ccc(Cl)cc1 , what is its reported Tmax?
Solution: 3.1 h

* * *

assay: Plasma AMG 232 pharmacokinetics (HPLC-MS, non-compartmental analysis); type: in vivo, human; settings: human, plasma, oral, 30 mg, Day 7, dose escalation, 30 mg (n = 3); read-out: Cmax, mean (SD)
ASSAY_READOUT: Cmax (µg/mL)
Number in µg/mL, nothing else.

Exercise: Can you look up the measured Cmax of CC(C)[C@@H](CS(=O)(=O)C(C)C)N1C(=O)[C@@](C)(CC(=O)O)C[C@H](c2cccc(Cl)c2)[C@H]1c1ccc(Cl)cc1 [AMG 232] for me?
Solution: 0.259

* * *

assay: Plasma AMG 232 pharmacokinetics (HPLC-MS, non-compartmental analysis); assay type: in vivo, human; conditions: human, plasma, oral, 240 mg, Day 1, 240-mg dose expansion, DDLPS (n = 6–10); read-out: AUC24h, mean (SD)
ASSAY_READOUT: AUC(0-t) (ng·h/mL)
Could you give me the number in ng·h/mL? Just the number is fine.

Exercise: I would be grateful if you could share the reported AUC(0-t) for CC(C)[C@@H](CS(=O)(=O)C(C)C)N1C(=O)[C@@](C)(CC(=O)O)C[C@H](c2cccc(Cl)c2)[C@H]1c1ccc(Cl)cc1 .
Solution: 8010

* * *

Test: Plasma AMG 232 pharmacokinetics (HPLC-MS, non-compartmental analysis)
Type: in vivo, human
Settings: human, plasma, oral, 240 mg, Day 7, 240-mg dose expansion, ER + PR– Breast (n = 4); read-out: AUC24h, mean (SD)
Experimental: Non-compartmental analysis was performed using WinNonlin Professional software, version 6.3. Parameters were summarized descriptively.
ASSAY_READOUT: AUC(0-t) (µg·h/mL)
# output: bare number, implied unit µg·h/mL

Exercise: Please give the measured AUC(0-t) for this molecule: CC(C)[C@@H](CS(=O)(=O)C(C)C)N1C(=O)[C@@](C)(CC(=O)O)C[C@H](c2cccc(Cl)c2)[C@H]1c1ccc(Cl)cc1 [AMG 232]
Solution: 9.96

* * *

Test: Plasma AMG 232 pharmacokinetics (HPLC-MS, non-compartmental analysis)
Format: in vivo, human
Details: human, plasma, oral, 240 mg, Day 7, 240-mg dose expansion, WDLPS (n = 9–10); read-out: Vz/F, mean (SD)
Method: Non-compartmental analysis was performed using WinNonlin Professional software, version 6.3. Parameters were summarized descriptively.
ASSAY_READOUT: Vd/F

Exercise: What value of measured Vd/F is listed for CC(C)[C@@H](CS(=O)(=O)C(C)C)N1C(=O)[C@@](C)(CC(=O)O)C[C@H](c2cccc(Cl)c2)[C@H]1c1ccc(Cl)cc1 ?
Solution: 389 L

* * *

Assay: Plasma AMG 232 pharmacokinetics (HPLC-MS, non-compartmental analysis)
Format: in vivo, human
Settings: human, plasma, oral, 240 mg, Day 1, dose escalation, 240 mg (n = 7–8); read-out: tmax, median (range)
Method: Non-compartmental analysis was performed using WinNonlin Professional software, version 6.3. Parameters were summarized descriptively.
ASSAY_READOUT: Tmax
Phrase the answer as number then unit, nothing more needed.

Exercise: Which Tmax value is on record for CC(C)[C@@H](CS(=O)(=O)C(C)C)N1C(=O)[C@@](C)(CC(=O)O)C[C@H](c2cccc(Cl)c2)[C@H]1c1ccc(Cl)cc1 ?
Solution: 2 h

* * *

experiment: Plasma AMG 232 pharmacokinetics (HPLC-MS, non-compartmental analysis); format: in vivo, human; conditions: human, plasma, oral, 120 mg, Day 7, dose escalation, 120 mg (n = 4–7); read-out: Vz/F, mean (SD)
ASSAY_READOUT: Vd/F (L)
State the answer as a number, implicitly in L.

Exercise: # Vd/F lookup, item CC(C)[C@@H](CS(=O)(=O)C(C)C)N1C(=O)[C@@](C)(CC(=O)O)C[C@H](c2cccc(Cl)c2)[C@H]1c1ccc(Cl)cc1 [AMG 232]
Solution: 664

* * *

assay: Plasma AMG 232 pharmacokinetics (HPLC-MS, non-compartmental analysis); format: in vivo, human; conditions: human, plasma, oral, 240 mg, Day 7, 240-mg dose expansion, DDLPS (n = 6–10); read-out: Vz/F, mean (SD)
ASSAY_READOUT: Vd/F (L)
Number in L, nothing else.

Exercise: Could you tell me which Vd/F is on file for CC(C)[C@@H](CS(=O)(=O)C(C)C)N1C(=O)[C@@](C)(CC(=O)O)C[C@H](c2cccc(Cl)c2)[C@H]1c1ccc(Cl)cc1 [AMG 232] ?
Solution: 537

* * *

experiment: Plasma AMG 232 pharmacokinetics (HPLC-MS, non-compartmental analysis); type: in vivo, human; settings: human, plasma, oral, 240 mg, Day 7, 240-mg dose expansion, ER + PR– Breast (n = 4); read-out: tmax, median (range)
ASSAY_READOUT: Tmax
Remember to follow the number with its unit.

Exercise: I would be grateful if you could share the reported Tmax for CC(C)[C@@H](CS(=O)(=O)C(C)C)N1C(=O)[C@@](C)(CC(=O)O)C[C@H](c2cccc(Cl)c2)[C@H]1c1ccc(Cl)cc1 .
Solution: 1 h

* * *

assay: Plasma AMG 232 pharmacokinetics (HPLC-MS, non-compartmental analysis); format: in vivo, human; conditions: human, plasma, oral, 240 mg, Day 1, 240-mg dose expansion, GBM (n = 6–9); read-out: tmax, median (range)
ASSAY_READOUT: Tmax

Exercise: Looking for the measured Tmax of CC(C)[C@@H](CS(=O)(=O)C(C)C)N1C(=O)[C@@](C)(CC(=O)O)C[C@H](c2cccc(Cl)c2)[C@H]1c1ccc(Cl)cc1 , can you help?
Solution: 3 h

* * *

assay: Plasma AMG 232 pharmacokinetics (HPLC-MS, non-compartmental analysis); type: in vivo, human; settings: human, plasma, oral, 300 mg, Day 7, dose escalation, 300 mg (n = 3–4); read-out: tmax, median (range)
ASSAY_READOUT: Tmax (h)
Just the number please, in h, no unit attached.

Exercise: What value of measured Tmax is listed for CC(C)[C@@H](CS(=O)(=O)C(C)C)N1C(=O)[C@@](C)(CC(=O)O)C[C@H](c2cccc(Cl)c2)[C@H]1c1ccc(Cl)cc1 ?
Solution: 3.1

* * *

experiment: Plasma AMG 232 pharmacokinetics (HPLC-MS, non-compartmental analysis); format: in vivo, human; details: human, plasma, oral, 240 mg, Day 1, 240-mg dose expansion, GBM (n = 6–9); read-out: Cmax, mean (SD)
ASSAY_READOUT: Cmax (ng/mL)
Record the value in ng/mL, omitting the unit from your answer.

Exercise: // lookup Cmax for CC(C)[C@@H](CS(=O)(=O)C(C)C)N1C(=O)[C@@](C)(CC(=O)O)C[C@H](c2cccc(Cl)c2)[C@H]1c1ccc(Cl)cc1
Solution: 978

* * *

Test: Plasma AMG 232 pharmacokinetics (HPLC-MS, non-compartmental analysis)
Type: in vivo, human
Conditions: human, plasma, oral, 240 mg, Day 1, Parts 1 and 2, 240 mg (n = 54–75); read-out: tmax, median (range)
Procedure: Non-compartmental analysis was performed using WinNonlin Professional software, version 6.3. Parameters were summarized descriptively.
ASSAY_READOUT: Tmax (h)
Hi! Could you send only the number? It should be in h, unit omitted.

Exercise: Data request, read-out Tmax, for CC(C)[C@@H](CS(=O)(=O)C(C)C)N1C(=O)[C@@](C)(CC(=O)O)C[C@H](c2cccc(Cl)c2)[C@H]1c1ccc(Cl)cc1
Solution: 3

* * *

Assay: Plasma AMG 232 pharmacokinetics (HPLC-MS, non-compartmental analysis)
Type: in vivo, human
Details: human, plasma, oral, 240 mg, Day 7, 240-mg dose expansion, ER + PR+ Breast (n = 6–8); read-out: Cmax, mean (SD)
Protocol: Non-compartmental analysis was performed using WinNonlin Professional software, version 6.3. Parameters were summarized descriptively.
ASSAY_READOUT: Cmax (µg/mL)
Write down the numeric answer in µg/mL and omit the unit.

Exercise: Requested read-out: Cmax. Entry: CC(C)[C@@H](CS(=O)(=O)C(C)C)N1C(=O)[C@@](C)(CC(=O)O)C[C@H](c2cccc(Cl)c2)[C@H]1c1ccc(Cl)cc1
Solution: 1.35

* * *

test: Plasma AMG 232 pharmacokinetics (HPLC-MS, non-compartmental analysis); type: in vivo, human; conditions: human, plasma, oral, 240 mg, Day 7, 240-mg dose expansion, DDLPS (n = 6–10); read-out: tmax, median (range)
ASSAY_READOUT: Tmax (h)
Record the value in h, omitting the unit from your answer.

Exercise: # input compound: CC(C)[C@@H](CS(=O)(=O)C(C)C)N1C(=O)[C@@](C)(CC(=O)O)C[C@H](c2cccc(Cl)c2)[C@H]1c1ccc(Cl)cc1 ; wanted: its Tmax
Solution: 3
